Assayed System: T1, TNFR2-His (Sino Biological, 10417-H08H, NP_001057.1 Met1-Asp257, with multi-histidine tag expressed on … (human, UniProt P20333 23-257))
T1 construct: range 1-257; Bought protein; also called recombinant human TNFR2 protein; TNFR2-His antigen; not shown: C-terminal multi-histidine tag
T1 sequence (looked up): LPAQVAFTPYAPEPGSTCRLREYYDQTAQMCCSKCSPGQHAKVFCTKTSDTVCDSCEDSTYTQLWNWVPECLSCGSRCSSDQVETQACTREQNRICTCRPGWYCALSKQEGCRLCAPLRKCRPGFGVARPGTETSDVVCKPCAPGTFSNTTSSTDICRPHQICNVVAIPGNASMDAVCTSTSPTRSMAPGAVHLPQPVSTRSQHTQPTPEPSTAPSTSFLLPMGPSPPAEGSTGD
Assay Name: BLI, antibody captured on AHC probe, TNFR2-His in solution
What kon was measured for each of the following?
Answer format: numeric, M⁻¹ s⁻¹ implied, no suffix.

(Q) What kon value was documented for this binder, 11G2huVH2 + huVL1(P07263) (antibody, V domains shown, Humanized 11G2) VH: QVQLVQSGAEVKKPGASVKVSCKASGYTFITYDINWVRQAPGQGLEWIGWIYPRDGNTQFNENFKGRVTMTTDTSTSTAYMELRSLRSDDTAVYYCARGDRDYGYFDVWGQGTTVTVSS VL: DIQMTPSTSSLSASVGDRVTITCRASQDISNYLNWYQQKPGKAVKLLIYFKSKLHSGVPSRFSGSGSGTDFTLTISSLQPEDFATYYCQQGNTLPLTFGGGTKLELK ?
(A) 287000

(Q) Same for 11G2huVH4 + huVL3(P07274) (antibody, V domains shown, Humanized 11G2) VH: QVQLVQSGAEVKKPGASVKVSCKASGYTFITYDINWVRQAPGQGLEWIGWIYPRDGNTQYAQKFQGRVTMTTDTSTSTAYMELRSLRSDDTAVYYCARGDRDYGYFDVWGQGTTVTVSS VL: DIQMTQSPSSLSASVGDRVTITCQASQDISNYLNWYQQKPGKAPKLLIYFKSKLETGVPSRFSGSGSGTDFTFTISSLQPEDIATYYCQQGNTLPLTFGGGTKLEIK
(A) 254000

(Q) Same for 11G2huVH4 + huVL1(P07265) (antibody, V domains shown, Humanized 11G2) VH: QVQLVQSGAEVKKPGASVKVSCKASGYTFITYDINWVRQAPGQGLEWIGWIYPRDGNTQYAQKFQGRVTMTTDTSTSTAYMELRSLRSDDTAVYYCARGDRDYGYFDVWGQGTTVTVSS VL: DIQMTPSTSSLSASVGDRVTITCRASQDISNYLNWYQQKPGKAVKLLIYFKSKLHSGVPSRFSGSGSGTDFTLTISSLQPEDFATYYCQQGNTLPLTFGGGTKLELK
(A) 261000

(Q) Same for 11G2huVH5 + huVL3(P07275) (antibody, V domains shown, Humanized 11G2) VH: QVQLVQSGAEVKKPGASVKVSCKASGYTFITYDINWVRQATGQGLEWIGWIYPRDGNTQYAQKFQGRVTMTRNTSISTAYMELSSLRSEDTAVYYCARGDRDYGYFDVWGQGTTVTVSS VL: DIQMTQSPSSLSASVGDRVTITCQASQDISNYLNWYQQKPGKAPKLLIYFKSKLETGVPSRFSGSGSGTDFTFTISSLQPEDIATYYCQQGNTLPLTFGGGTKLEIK
(A) 213000

(Q) Same for 11G2huVH3 + huVL1(P07264) (antibody, V domains shown, Humanized 11G2) VH: QVQLVQSGAEVKKPGASVKVSCKASGYTFITYDINWVRQATGQGLEWIGWIYPRDGNTQFNENFQGRVTMTRNTSISTAYMELSSLRSEDTAVYYCARGDRDYGYFDVWGQGTTVTVSS VL: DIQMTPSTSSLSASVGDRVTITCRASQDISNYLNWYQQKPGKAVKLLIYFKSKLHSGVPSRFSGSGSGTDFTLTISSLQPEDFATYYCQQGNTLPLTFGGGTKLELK
(A) 316000

(Q) Same for 11G2huVH4 + huVL2(P07269) (antibody, V domains shown, Humanized 11G2) VH: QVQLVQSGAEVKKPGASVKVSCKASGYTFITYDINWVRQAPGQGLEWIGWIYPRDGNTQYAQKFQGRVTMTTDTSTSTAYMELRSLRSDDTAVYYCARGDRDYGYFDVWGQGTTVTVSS VL: DIQMTQSPSSLSASVGDRVTITCRASQDISNYLNWYQQKPGKAPKLLIYFKSKLHSGVPSRFSGSGSGTDFTLTISSLQPEDFATYYCQQGNTLPLTFGGGTKLEIK
(A) 281000

Every entry's value here was drawn from patent US20240392024A1.
